Origin of the recorded values: patent US20240043427A1

# TARGET UNDER TEST: UniProtKB P21589
# TEST DETAILS: MDA-MB-231 Cell Based CD73 Activity Assay (DMEM)
# EXPERIMENTAL PARAMETERS: MDA-MB-231-GFP cells, DMEM medium with 10% human plasma, 200 uM AMP
pEC50: −log10 of the molar value.
Tick TRUE if pEC50 is 8 or greater. Tick FALSE if pEC50 is less than 8.

{"MOLECULE": "CCOC(=O)OC1CN(c2cc(-c3c[nH]c(=O)[nH]c3=O)nn3ccnc23)CC1(F)F (stereo not drawn)", "LABEL VALUE": "TRUE"}
{"MOLECULE": "CC1(C)C(=O)N(CC(F)(F)F)c2cc([C@H]3C[C@@H]3c3cc(-c4c[nH]c(=O)[nH]c4=O)nn4ccnc34)cnc21 [Example 699]", "LABEL VALUE": "TRUE"}
{"MOLECULE": "CC1CN(c2cc(-c3c[nH]c(=O)[nH]c3=O)nc3c(F)cnn23)CC1(F)F (stereo not drawn)", "LABEL VALUE": "FALSE"}
{"MOLECULE": "CC1(O)CCN(c2cc(-c3c[nH]c(=O)[nH]c3=O)nn3ccnc23)C1 (stereo not drawn)", "LABEL VALUE": "FALSE"}
{"MOLECULE": "CNC(=O)c1cccc(C2CCN(c3cc(-c4c[nH]c(=O)[nH]c4=O)nn4ccnc34)C2)c1 (stereo not drawn)", "LABEL VALUE": "FALSE"}
{"MOLECULE": "C[C@H](COc1cc(-c2c[nH]c(=O)[nH]c2=O)nn2ccnc12)c1ccccc1", "LABEL VALUE": "FALSE"}
{"MOLECULE": "CC1(C)CN(c2cc(-c3c[nH]c(=O)[nH]c3=O)nc3ccnn23)CC1(F)F", "LABEL VALUE": "FALSE"}
{"MOLECULE": "C[C@@H](NC(=O)O[C@H]1CN(c2cc(-c3c[nH]c(=O)[nH]c3=O)nn3ccnc23)CC1(F)F)C(F)(F)F", "LABEL VALUE": "TRUE"}
{"MOLECULE": "O=c1[nH]cc(-c2cc(N3CCCC(F)(F)C3)c3nccn3n2)c(=O)[nH]1", "LABEL VALUE": "FALSE"}
{"MOLECULE": "O=C(c1cn2nc(-c3c[nH]c(=O)[nH]c3=O)cc([C@H]3C[C@@H]3c3ccc(F)cc3)c2n1)N1CC(F)(F)C1 (racemic)", "LABEL VALUE": "FALSE"}
{"MOLECULE": "O=c1[nH]cc(-c2cc(N3CC(F)C4(CC4)C3)c3ncc(F)n3n2)c(=O)[nH]1 (stereo not drawn)", "LABEL VALUE": "FALSE"}
{"MOLECULE": "CC1(C)CN(c2cc(-c3c[nH]c(=O)[nH]c3=O)nn3c(Cl)c(Cl)nc23)CC1(F)F", "LABEL VALUE": "FALSE"}
{"MOLECULE": "CC(=O)N1CC2(C1)CN(c1cc(-c3c[nH]c(=O)[nH]c3=O)nn3ccnc13)CC2(F)F", "LABEL VALUE": "TRUE"}
{"MOLECULE": "O=c1[nH]cc(-c2cc([C@H]3C[C@@H]3c3ccc(C(F)(F)F)cn3)c3nccn3n2)c(=O)[nH]1 [Example 150]", "LABEL VALUE": "TRUE"}

----------
# TARGET UNDER TEST: CD73 (Homo sapiens (Human))
# Format: biochemical
# EXPERIMENTAL PARAMETERS: 1 mM NaH2PO4 in enzyme buffer, CD73 0.3 nM, AMP 15 uM
pIC50: −log10 of the molar value.
Tick satisfied if pIC50 is 8 or greater. Tick not satisfied if pIC50 is less than 8.

{"MOLECULE": "O=c1[nH]cc(-c2cc([C@H]3C[C@@H]3c3ccc(Cl)c(F)c3)c3nccn3n2)c(=O)[nH]1 (racemic)", "LABEL VALUE": "satisfied"}
{"MOLECULE": "C[C@]1(F)CCN(c2cc(-c3c[nH]c(=O)[nH]c3=O)nn3ccnc23)C1", "LABEL VALUE": "not satisfied"}
{"MOLECULE": "CC(NC(=O)O[C@H]1CN(c2cc(-c3c[nH]c(=O)[nH]c3=O)nn3ccnc23)CC1(F)F)C(F)F (stereo partly shown)", "LABEL VALUE": "satisfied"}
{"MOLECULE": "O=c1[nH]cc(-c2cc(N3CCC(C4CC4)C3)c3nccn3n2)c(=O)[nH]1 (stereo not shown)", "LABEL VALUE": "not satisfied"}
{"MOLECULE": "O=c1[nH]cc(-c2cc(N3CC4CC4(C(F)(F)F)C3)c3nccn3n2)c(=O)[nH]1 (stereo not shown)", "LABEL VALUE": "not satisfied"}
{"MOLECULE": "O=c1[nH]cc(-c2cc([C@H]3C[C@@H]3c3ccc(OC(F)(F)F)cn3)c3ncc(F)n3n2)c(=O)[nH]1 (racemic)", "LABEL VALUE": "satisfied"}
{"MOLECULE": "O=C(NCC(F)(F)F)O[C@H]1CN(c2cc(-c3c[nH]c(=O)[nH]c3=O)nn3ccnc23)CC1(F)F", "LABEL VALUE": "satisfied"}

----------
# TARGET UNDER TEST: CD73 (Homo sapiens (Human), UniProt P21589)
# Sequence (P21589 27-574): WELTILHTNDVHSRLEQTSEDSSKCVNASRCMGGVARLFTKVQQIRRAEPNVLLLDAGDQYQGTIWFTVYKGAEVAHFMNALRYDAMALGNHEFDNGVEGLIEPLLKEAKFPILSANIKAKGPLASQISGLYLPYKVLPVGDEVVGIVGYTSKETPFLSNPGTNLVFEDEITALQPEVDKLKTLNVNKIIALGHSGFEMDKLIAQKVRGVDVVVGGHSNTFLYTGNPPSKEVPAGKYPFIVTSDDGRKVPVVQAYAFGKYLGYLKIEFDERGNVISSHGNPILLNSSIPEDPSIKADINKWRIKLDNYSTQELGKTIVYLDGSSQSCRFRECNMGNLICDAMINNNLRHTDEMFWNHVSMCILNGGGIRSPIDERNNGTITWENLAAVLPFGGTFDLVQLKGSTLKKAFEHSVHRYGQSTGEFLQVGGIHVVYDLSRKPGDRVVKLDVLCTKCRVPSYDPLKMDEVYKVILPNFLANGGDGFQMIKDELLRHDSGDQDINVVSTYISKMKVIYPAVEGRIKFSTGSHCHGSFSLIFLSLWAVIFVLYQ
# TEST DETAILS: MDA-MB-231 Cell Based CD73 Activity Assay (DMEM)
# EXPERIMENTAL PARAMETERS: MDA-MB-231-GFP cells, DMEM medium with 10% human plasma, 200 uM AMP
EC50 reference

{"COMPOUND": "O=c1[nH]cc(-c2cc([C@H]3C[C@@H]3c3ccc4c(F)nn(CC(F)(F)F)c4c3)c3ncc(F)n3n2)c(=O)[nH]1", "UNIT OF MEASUREMENT": "nM", "EC50": 0.27}
{"COMPOUND": "O=c1[nH]cc(-c2cc([C@H]3C[C@@H]3c3ccc4nc(C(F)F)sc4c3)c3nccn3n2)c(=O)[nH]1 (racemic)", "UNIT OF MEASUREMENT": "nM", "EC50": 2.56}
{"COMPOUND": "O=c1[nH]cc(-c2cc(N3CC4CC(C3)C4(F)F)c3nccn3n2)c(=O)[nH]1", "UNIT OF MEASUREMENT": "nM", "EC50": 142}
{"COMPOUND": "O=c1[nH]cc(-c2cc([C@H]3C[C@@H]3c3ccc4c(F)nn(CC(F)(F)F)c4c3)c3ncc(Cl)n3n2)c(=O)[nH]1", "UNIT OF MEASUREMENT": "nM", "EC50": 0.32}
{"COMPOUND": "O=C1N(CC(F)(F)C2CC2)c2cc([C@H]3C[C@@H]3c3cc(-c4c[nH]c(=O)[nH]c4=O)nn4ccnc34)ccc2C12CC2 (racemic)", "UNIT OF MEASUREMENT": "nM", "EC50": 0.21}
{"COMPOUND": "N#Cc1ccc([C@H]2C[C@@H]2c2cc(-c3c[nH]c(=O)[nH]c3=O)nn3ccnc23)c(F)c1F", "UNIT OF MEASUREMENT": "nM", "EC50": 20.4}

----------
# TARGET UNDER TEST: CD73 (Homo sapiens (Human), UniProt P21589)
# TEST DETAILS: MDA-MB-231 Cell Based CD73 Activity Assay (DMEM)
# EXPERIMENTAL PARAMETERS: MDA-MB-231-GFP cells, DMEM medium with 10% human plasma, 200 uM AMP
EC50 under 20 nM gets 1 (yes), anything at or over 20 nM gets 0 (no).

{"COMPOUND": "O=c1[nH]cc(-c2cc(N3CC[C@H](C(F)F)C3)c3nccn3n2)c(=O)[nH]1 [Example 229]", "TARGET UNDER TEST": "CD73 (Homo sapiens (Human), UniProt P21589)", "LABEL VALUE": "0 (no)"}
{"COMPOUND": "O=c1[nH]cc(-c2cc(N3CC(Oc4ccc(C(F)(F)F)cn4)C4(CC4)C3)c3nccn3n2)c(=O)[nH]1 (centres unmarked) [Example 345]", "TARGET UNDER TEST": "CD73 (Homo sapiens (Human), UniProt P21589)", "LABEL VALUE": "0 (no)"}
{"COMPOUND": "CC1(C)CN(c2cc(-c3c[nH]c(=O)[nH]c3=O)nn3ncnc23)CC1(F)F [Example 426]", "TARGET UNDER TEST": "CD73 (Homo sapiens (Human), UniProt P21589)", "LABEL VALUE": "1 (yes)"}
{"COMPOUND": "O=c1[nH]cc(-c2cc(N3CCC(CO)(CCl)C3)c3nccn3n2)c(=O)[nH]1 (centres unmarked) [Example 652]", "TARGET UNDER TEST": "CD73 (Homo sapiens (Human), UniProt P21589)", "LABEL VALUE": "0 (no)"}
{"COMPOUND": "COC[C@@H]1CCCN1c1cc(-c2c[nH]c(=O)[nH]c2=O)nn2ccnc12 [Example 477]", "TARGET UNDER TEST": "CD73 (Homo sapiens (Human), UniProt P21589)", "LABEL VALUE": "0 (no)"}
{"COMPOUND": "O=c1[nH]cc(-c2cc([C@H]3C[C@@H]3c3ccc(OC(F)F)cn3)c3ncc(F)n3n2)c(=O)[nH]1 [Example 132]", "TARGET UNDER TEST": "CD73 (Homo sapiens (Human), UniProt P21589)", "LABEL VALUE": "1 (yes)"}
{"COMPOUND": "N#Cc1ccc([C@H]2C[C@@H]2c2cc(-c3c[nH]c(=O)[nH]c3=O)nn3c(F)cnc23)cc1 [Example 158]", "TARGET UNDER TEST": "CD73 (Homo sapiens (Human), UniProt P21589)", "LABEL VALUE": "1 (yes)"}
{"COMPOUND": "O=c1[nH]cc(-c2cc(N3CC4CCC3CC4)c3nccn3n2)c(=O)[nH]1 [Example 647]", "TARGET UNDER TEST": "CD73 (Homo sapiens (Human), UniProt P21589)", "LABEL VALUE": "0 (no)"}
